Test name: Metabolic stability in human liver microsomes assessed as parent compound remaining incubated for 10 mins in presence of NADPH by triple quadrupole mass spectrometry
Type: ADME, Microsome
Condition description: read-out: Stabilty
remaining at 10 min under 90% gets 1, anything at or over 90% gets 0.

Find out if reported remaining at 10 min for CCCCc1nc(O)c(-c2nnc(Cc3ccc(Cl)cc3)o2)c(O)c1-c1c(OC)cccc1OC is less than 90% 1

is_below(remaining at 10 min, 90%) for CCCCc1[nH]c(=O)c(-c2n[nH]c(Cc3ccccc3)n2)c(O)c1-c1c(OC)cccc1OC ? 1

# check: remaining at 10 min < 90% for CCCCc1[nH]c(=O)c(-c2nnc(-c3ccc(Cl)cc3)o2)c(O)c1-c1c(OC)cccc1OC 0

Decide: remaining at 10 min of CCOCc1[nH]c(=O)c(-c2nnc(Cc3ccc(Cl)nc3)o2)c(O)c1-c1c(OC)cccc1OC strictly below 90%? 0

* * *

For each entry below, report its EC50 value.
Tested target: UniProtKB Q9JHG3
Sequence (Q9JHG3 whole entry): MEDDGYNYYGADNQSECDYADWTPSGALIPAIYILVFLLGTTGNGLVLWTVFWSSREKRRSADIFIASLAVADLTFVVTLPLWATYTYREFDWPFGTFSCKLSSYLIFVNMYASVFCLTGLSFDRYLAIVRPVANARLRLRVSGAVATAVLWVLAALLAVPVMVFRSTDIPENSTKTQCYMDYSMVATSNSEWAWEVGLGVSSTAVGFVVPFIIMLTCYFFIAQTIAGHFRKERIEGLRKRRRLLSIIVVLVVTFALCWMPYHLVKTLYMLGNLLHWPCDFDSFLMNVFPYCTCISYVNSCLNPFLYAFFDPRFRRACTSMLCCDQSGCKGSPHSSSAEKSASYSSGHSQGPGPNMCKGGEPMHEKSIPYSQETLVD
Test name: Agonist activity at rat APJ receptor expressed in human HEK293 cells assessed as inhibition of forskolin-induced cAMP accumulation incubated for 1 hr by TR-FRET assay
Give your result in nM as a bare value.

Give its EC50 value. Item: COc1cccc(OC)c1-c1c(C2CC2)[nH]c(=O)c(-c2nnc(Cc3ccc(Cl)cc3)o2)c1O 15

I would be grateful if you could share the reported EC50 for CCOCc1[nH]c(=O)c(-c2nnc(Cc3ccc(Cl)nc3)o2)c(O)c1-c1c(OC)cccc1OC . 0.58

Looking for the measured EC50 of CCCCc1nc(O)c(-c2nnc(Cc3cccc(Cl)c3)o2)c(O)c1-c1c(OC)cccc1OC , can you help? 7.3

* * *

Test name: Metabolic stability in human liver microsomes assessed as parent compound remaining incubated for 10 mins in presence of NADPH by triple quadrupole mass spectrometry
Assay type: ADME, Microsome
Condition description: read-out: Stabilty
Answer each item with its documented remaining at 10 min.
The response must be a number in % with no trailing unit.

Looking for the measured remaining at 10 min of COc1cccc(OC)c1-c1c(C2CC2)[nH]c(=O)c(-c2nnc(Cc3ccc(Cl)cc3)o2)c1O , can you help? 88

So what does the record say about remaining at 10 min for CCCCc1nc(O)c(-c2nnc(Cc3cccc(Cl)c3)o2)c(O)c1-c1c(OC)cccc1OC ? 88

# remaining at 10 min lookup, item CCOCc1nc(O)c(-c2nnc(Cc3ccc(Cl)cn3)o2)c(O)c1-c1c(OC)cccc1OC 91

Using the record for CCCCc1[nH]c(=O)c(C(=O)OCC)c(O)c1-c1c(OC)cccc1OC , report its remaining at 10 min. 89
